test: Selectivity index, ratio of IC50 for human recombinant CDK5/p25 to porcine brain GSK3alpha/beta
Decide using Ratio IC50: a value greater than or equal to 10 is yes (1), a smaller one is no (0).

Worked set:
| compound | answer label |
| --- | --- |
| CO[C@@H]1CCN2C(=O)c3cccc(NC(=O)Nc4ccccn4)c3[C@@H]2C1 (relative stereo) | no (0) |
| CO[C@@H]1CCN2C(=O)c3cccc(NC(=O)Nc4cnccn4)c3[C@@H]2C1 (relative stereo) | no (0) |
| O=C(Nc1ccc(Br)cn1)Nc1cccc2c1C1CC3(CCN1C2=O)SCCS3 (centres undefined) | yes (1) |
| Cc1cccnc1NC(=O)Nc1cccc2c1C1CC3(CCN1C2=O)OCCO3 (centres undefined) | no (0) |
| COc1cc(NC(=O)Nc2cccc3c2C2CC4(CCN2C3=O)OCCO4)nc2ccccc12 (centres undefined) | yes (1) |

Next item in the queue.
Inquiry: Dear colleague, could you confirm whether CO[C@@H]1CCN2C(=O)c3cccc(NC(=O)Nc4cccc(C)n4)c3[C@@H]2C1 (relative stereo) has Ratio IC50 at or above 10?
Reply text: yes (1)

* * *

Examples of compounds with documented IC50 follow.
biological target: Glycogen synthase kinase-3 (Sus scrofa, UniProt B2LUN4+I6LNT8); assay: Inhibition of porcine brain GSK3alpha/beta using GS-1 substrate and ATP
All answers are understood in nM, so give the number only.

Worked set:
| compound | measure unit | IC50 |
| --- | --- | --- |
| CO[C@@H]1CCN2C(=O)c3cccc(NC(=O)Nc4ccccn4)c3[C@@H]2C1 (relative stereo) | nM | 81 |
| CO[C@@H]1CCN2C(=O)c3cccc(NC(=O)Nc4cc(C)ccn4)c3[C@@H]2C1 (relative stereo) | nM | 32 |
| Cn1ccc(NC(=O)Nc2cccc3c2C2CC4(CCN2C3=O)SCCS4)n1 (stereo unspecified) | nM | 1900 |
| Cc1cccnc1NC(=O)Nc1cccc2c1C1CC3(CCN1C2=O)OCCO3 (stereo unspecified) | nM | 610 |
| CO[C@@H]1CCN2C(=O)c3cccc(NC(=O)Nc4cnc(C)cn4)c3[C@@H]2C1 (relative stereo) | nM | 140 |

Inquiry: Can you share its IC50? I mean this compound: O=C1CCN2C(=O)c3cccc(NC(=O)Nc4ccccn4)c3C2C1 (stereo unspecified)
Reply text: 230

Inquiry: Do the same for O=C(Nc1ccc(Br)cn1)Nc1cccc2c1C1CC3(CCN1C2=O)SCCS3 (stereo unspecified) please
Reply text: 68

Inquiry: Can you handle COc1cc(NC(=O)Nc2cccc3c2[C@@H]2C[C@H](OC)CCN2C3=O)nc2ccccc12 (relative stereo) next?
Reply text: 180

* * *

molecular target: Cyclin-dependent kinase 5/CDK5 activator 1 (Homo sapiens); assay: Inhibition of human recombinant CDK5/p25 using histone H1 substrate and ATP
Sequence (Q00535 whole entry): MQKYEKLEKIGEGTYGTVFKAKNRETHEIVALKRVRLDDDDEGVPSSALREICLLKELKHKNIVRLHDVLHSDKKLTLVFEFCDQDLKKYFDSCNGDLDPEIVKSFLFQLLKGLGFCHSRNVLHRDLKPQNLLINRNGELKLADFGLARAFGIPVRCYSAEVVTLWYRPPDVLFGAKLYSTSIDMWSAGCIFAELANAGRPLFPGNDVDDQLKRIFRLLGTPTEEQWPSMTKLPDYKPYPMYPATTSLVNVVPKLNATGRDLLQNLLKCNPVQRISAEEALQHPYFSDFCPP
Sequence (Q15078 whole entry, further chain): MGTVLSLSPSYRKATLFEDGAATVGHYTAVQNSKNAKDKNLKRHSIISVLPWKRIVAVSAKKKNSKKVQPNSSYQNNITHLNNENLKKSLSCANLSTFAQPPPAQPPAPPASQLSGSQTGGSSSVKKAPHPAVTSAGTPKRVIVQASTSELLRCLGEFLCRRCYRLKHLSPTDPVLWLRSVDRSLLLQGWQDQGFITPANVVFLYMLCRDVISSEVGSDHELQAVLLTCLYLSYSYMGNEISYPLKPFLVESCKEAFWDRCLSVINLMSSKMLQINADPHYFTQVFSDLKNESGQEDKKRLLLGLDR
measure name: IC50 (nM)
Hi! Could you send only the number? It should be in nM, unit omitted.

Recorded IC50, per entry:
| compound | assay target | meas value |
| --- | --- | --- |
| O=C(Nc1cnccn1)Nc1cccc2c1[C@@H]1C[C@H](O)CCN1C2=O (relative stereo) | Cyclin-dependent kinase 5/CDK5 activator 1 (Homo sapiens) | 84 |
| CO[C@@H]1CCN2C(=O)c3cccc(NC(=O)Nc4ccn(C)n4)c3[C@@H]2C1 (relative stereo) | Cyclin-dependent kinase 5/CDK5 activator 1 (Homo sapiens) | 2300 |
| O=C1CCN2C(=O)c3cccc(NC(=O)Nc4ccccn4)c3C2C1 (configuration not stated) | Cyclin-dependent kinase 5/CDK5 activator 1 (Homo sapiens) | 1600 |

Inquiry: # input compound: CO[C@@H]1CCN2C(=O)c3cccc(NC(=O)Nc4cnc(C)cn4)c3[C@@H]2C1 (relative stereo) ; wanted: its IC50
Reply text: 320

Inquiry: Okay, and COc1cc(NC(=O)Nc2cccc3c2[C@@H]2C[C@H](O)CCN2C3=O)nc2ccccc12 (relative stereo) ?
Reply text: 4900

Inquiry: How about CO[C@@H]1CCN2C(=O)c3cccc(NC(=O)Nc4ccccn4)c3[C@@H]2C1 (relative stereo) ?
Reply text: 550

Inquiry: // same read-out, input: O=C1CCN2C(=O)c3cccc(NC(=O)Nc4cnccn4)c3C2C1 (configuration not stated)
Reply text: 3600
